Target: VEGFR-2 enzyme (Homo sapiens)
Sequence (P35968 20-1356): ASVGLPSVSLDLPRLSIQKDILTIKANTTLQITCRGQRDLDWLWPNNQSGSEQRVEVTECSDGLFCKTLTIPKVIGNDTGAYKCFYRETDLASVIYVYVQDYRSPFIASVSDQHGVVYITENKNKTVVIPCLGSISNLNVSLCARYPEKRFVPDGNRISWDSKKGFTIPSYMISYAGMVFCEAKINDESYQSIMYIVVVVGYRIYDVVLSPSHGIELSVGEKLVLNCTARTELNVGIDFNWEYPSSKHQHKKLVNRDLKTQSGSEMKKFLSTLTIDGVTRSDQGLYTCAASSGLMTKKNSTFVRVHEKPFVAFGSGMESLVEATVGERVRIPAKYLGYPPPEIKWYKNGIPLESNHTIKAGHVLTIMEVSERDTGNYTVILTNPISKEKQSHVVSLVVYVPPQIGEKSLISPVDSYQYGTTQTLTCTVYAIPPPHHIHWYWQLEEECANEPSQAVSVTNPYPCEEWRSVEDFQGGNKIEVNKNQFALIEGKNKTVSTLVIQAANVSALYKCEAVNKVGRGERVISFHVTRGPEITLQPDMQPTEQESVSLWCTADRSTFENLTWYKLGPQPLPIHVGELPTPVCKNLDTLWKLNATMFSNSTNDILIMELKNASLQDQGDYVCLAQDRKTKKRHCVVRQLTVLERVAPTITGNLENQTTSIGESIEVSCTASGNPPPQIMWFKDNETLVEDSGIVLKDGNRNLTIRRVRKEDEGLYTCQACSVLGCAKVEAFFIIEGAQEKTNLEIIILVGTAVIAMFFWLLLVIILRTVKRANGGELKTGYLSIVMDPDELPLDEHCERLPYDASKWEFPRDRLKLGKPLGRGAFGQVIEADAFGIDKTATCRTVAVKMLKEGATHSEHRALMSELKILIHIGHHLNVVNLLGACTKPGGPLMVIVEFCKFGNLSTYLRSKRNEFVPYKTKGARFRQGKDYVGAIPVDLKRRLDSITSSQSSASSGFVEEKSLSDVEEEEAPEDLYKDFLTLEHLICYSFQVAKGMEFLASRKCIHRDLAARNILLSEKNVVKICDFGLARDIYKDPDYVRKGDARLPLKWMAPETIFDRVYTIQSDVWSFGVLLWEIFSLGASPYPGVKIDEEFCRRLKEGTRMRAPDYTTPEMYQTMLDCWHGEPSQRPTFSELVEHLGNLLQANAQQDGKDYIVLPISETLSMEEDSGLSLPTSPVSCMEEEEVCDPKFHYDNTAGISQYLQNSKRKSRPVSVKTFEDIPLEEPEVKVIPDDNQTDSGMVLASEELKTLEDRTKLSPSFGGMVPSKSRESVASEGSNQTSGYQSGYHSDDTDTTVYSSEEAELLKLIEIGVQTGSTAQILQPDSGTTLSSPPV
MEASUREMENT NAME: IC50 (nM)

[a] O=C(CSc1nnc(-c2ccc3nc(-c4ccc(N5CCOCC5)cc4)[nH]c3c2)o1)c1ccc(Br)cc1
[b] O=C(CSc1nnc(-c2ccc3nc(-c4ccc(N5CCOCC5)cc4)[nH]c3c2)o1)c1ccc(Cl)c(Cl)c1
[c] COc1ccc(C(=O)CSc2nnc(-c3ccc4nc(-c5ccc(N6CCOCC6)cc5)[nH]c4c3)o2)cc1
Q. Rank items: key IC50, increasing. Give me the labels in the order the question wants.
A. b, a, c
(b: 49 nM, a: 98 nM, c: 918 nM)
